Assay Procedure: qHTS assay to identify small molecule agonists of the endoplasmic reticulum stress response signaling pathway - cell viability counter screen (AID 1159517); also: nearly all actives have a fitted effect of over 50% in size
Assay Conditions: ESRE-bla HeLa viability, CellTiter-Glo luminescence, 5 h; series mostly up to 61 µM
From the text: U.S. Tox21 Program National Center for Advancing Translational Sciences [NCATS] NIH Chemical Genomics Center [NCGC] U.S. Environmental Protection Agency [EPA] National Institutes of Environmental Health Sciences [NIEHS] National Toxicology Program [NTP] U.S. Food and Drug Administration [FDA] Tox21 Assay Overview: Endoplasmic Reticulum (ER) plays an important role in cellular signaling, protein folding/maturation, stress response, lipid biosynthesis, calcium storage and release etc. […]
Inconclusive results are not listed. The source made the active and inactive calls. Calls follow the shape of the full dose curve.
Classes used: active, inactive

Compound | Category Label
CC1COC(=O)O1 (centres undefined) | inactive
COc1ccc(CCN2CCC(Nc3nc4ccccc4n3Cc3ccc(F)cc3)CC2)cc1 | active
CCn1c2ccccc2c2cc(N)ccc21 | inactive
Nc1ccc2cc3ccccc3cc2c1 | inactive
